These measurements were taken from the supplement of paper PMC7125110.

B1: glmS ribozyme (parent)
chain: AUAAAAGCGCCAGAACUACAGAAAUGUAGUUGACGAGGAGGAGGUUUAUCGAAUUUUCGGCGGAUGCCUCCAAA

variants of: B1; assay: self-cleavage kobs at 2500 uM GlcN6P; higher = faster cleavage; RNA array; details: with glucosamine-6-phosphate
Variants at the floor of the assay were thinned out.
self-cleavage kobs at 2500 uM GlcN6P by entry:

// below: answered variants
variant-key: A39U U45G
reported-measurement: 0.00481 s⁻¹
--
variant-key: G7C C34U
reported-measurement: < 1e-05 s⁻¹
--
variant-key: C16G G35C
reported-measurement: < 1e-05 s⁻¹

Record G44A A64C . Reported self-cleavage kobs at 2500 uM GlcN6P: < 1e-05 s⁻¹

Record U45A U55C U57C . Reported self-cleavage kobs at 2500 uM GlcN6P: 8.32e-05 s⁻¹

Record C16G G43U U45A U65G C68U C70U . Reported self-cleavage kobs at 2500 uM GlcN6P: < 1e-05 s⁻¹

Record A42G C71A . Reported self-cleavage kobs at 2500 uM GlcN6P: 0.00316 s⁻¹
